- target_or_system: σ2 (Rattus norvegicus)
- Sequence (Q5U3Y7 whole entry): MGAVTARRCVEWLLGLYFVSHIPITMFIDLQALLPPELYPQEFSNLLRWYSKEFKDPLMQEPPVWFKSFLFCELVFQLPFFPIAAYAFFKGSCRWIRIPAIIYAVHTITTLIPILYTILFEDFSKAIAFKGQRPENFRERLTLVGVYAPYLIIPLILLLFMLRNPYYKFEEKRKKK
- test_name: σ2 receptor binding assay, [3H]DTG (+ 300 nM (+)pentazocine)
- measurement_conditions: 1.0E−06 M, 2nd individual value; hydrochloride
metric_name: % of Control Specific Binding, 2nd (%)
The reply should be a number in %, with the unit left off.

In [3]: df
Out[3]:
                                   compound  data_value
0  CN(C)CC1CCOC1(c1ccccc1)c1ccccc1.Cl (single isomer, unassigned; (+)) [(+) A2-73]        83.2
1  CN(C)CC1CCOC1(c1ccccc1)c1ccccc1.Cl (single isomer, unassigned; (-)) [(−) A2-73]       100.6
2  CN(C)CC1COC(c2ccccc2)(c2ccccc2)C1.Cl (single isomer, unassigned; (-)) [(−) A1-41]        40.3

Q: Quick check: % of Control Specific Binding, 2nd on σ2 (Rattus norvegicus), item CN(C)CC1COC(c2ccccc2)(c2ccccc2)C1.Cl (single isomer, unassigned; (+)) [(+) A1-41] ?
A: 56.8

Hello, the source for this data is patent US12208079B2, in case you need it.
